src = ChEMBL document CHEMBL1961873

Below: a set of entries, each annotated with reported inhibition.
# Target: Macrophage-stimulating protein receptor (Homo sapiens) (UniProt Q04912)
# Sequence (Q04912 25-304 limits assumed): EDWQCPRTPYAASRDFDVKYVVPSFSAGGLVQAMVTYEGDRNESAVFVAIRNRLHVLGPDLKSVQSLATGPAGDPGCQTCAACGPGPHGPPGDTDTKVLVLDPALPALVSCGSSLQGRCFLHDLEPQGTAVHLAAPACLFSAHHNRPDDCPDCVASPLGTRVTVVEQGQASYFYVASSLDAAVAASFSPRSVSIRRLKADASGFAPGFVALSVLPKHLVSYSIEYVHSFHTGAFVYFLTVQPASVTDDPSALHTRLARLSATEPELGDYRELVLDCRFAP
# Sequence (Q04912 310-1400 limits assumed): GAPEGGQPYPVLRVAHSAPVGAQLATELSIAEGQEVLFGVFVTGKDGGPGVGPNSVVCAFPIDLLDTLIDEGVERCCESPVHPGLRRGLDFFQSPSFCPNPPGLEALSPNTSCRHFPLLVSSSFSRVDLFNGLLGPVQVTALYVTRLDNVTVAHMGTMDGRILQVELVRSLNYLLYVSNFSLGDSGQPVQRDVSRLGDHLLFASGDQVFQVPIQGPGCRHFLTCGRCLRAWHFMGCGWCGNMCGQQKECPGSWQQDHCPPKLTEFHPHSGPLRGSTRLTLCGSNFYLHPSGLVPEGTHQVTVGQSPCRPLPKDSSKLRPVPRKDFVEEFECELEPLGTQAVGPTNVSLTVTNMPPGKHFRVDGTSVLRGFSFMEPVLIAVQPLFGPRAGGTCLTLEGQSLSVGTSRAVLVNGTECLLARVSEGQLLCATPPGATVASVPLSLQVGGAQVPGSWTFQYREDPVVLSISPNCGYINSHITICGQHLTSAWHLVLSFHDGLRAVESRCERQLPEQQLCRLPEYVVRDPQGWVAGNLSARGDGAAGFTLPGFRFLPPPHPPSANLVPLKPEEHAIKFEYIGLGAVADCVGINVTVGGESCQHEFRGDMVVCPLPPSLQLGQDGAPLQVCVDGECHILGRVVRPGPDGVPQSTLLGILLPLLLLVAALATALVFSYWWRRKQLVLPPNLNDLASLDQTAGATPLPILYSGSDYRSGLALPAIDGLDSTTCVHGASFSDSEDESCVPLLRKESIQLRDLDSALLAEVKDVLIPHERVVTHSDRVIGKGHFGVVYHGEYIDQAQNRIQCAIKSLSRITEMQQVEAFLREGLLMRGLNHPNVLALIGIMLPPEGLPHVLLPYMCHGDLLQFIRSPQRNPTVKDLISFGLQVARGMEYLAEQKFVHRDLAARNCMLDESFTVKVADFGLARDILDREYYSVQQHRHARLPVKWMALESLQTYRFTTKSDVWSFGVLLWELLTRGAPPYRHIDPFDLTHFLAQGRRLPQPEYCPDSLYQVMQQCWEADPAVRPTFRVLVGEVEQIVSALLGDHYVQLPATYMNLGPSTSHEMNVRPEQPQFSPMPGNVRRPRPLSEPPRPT
# Condition Description: at 1 µM
# Description: GSK_PKIS: RON mean inhibition at 1 uM [Nanosyn]
Just the number in %, nothing appended.

// solved cases for inhibition follow
{"Compound": "CCc1ccc(Oc2nccc(-c3c(-c4ccc(F)cc4)ncn3C3CCNCC3)n2)cc1", "Property Label": "inhibition", "Observed Value": 2.97}
{"Compound": "Cc1ccc(C(=O)NC2CCC2)cc1-c1ccc(C(=O)NCC2CC2)cc1", "Property Label": "inhibition", "Observed Value": 4.87}
{"Compound": "Fc1ccc(-c2c(-c3ccncc3)nc3n2CCS3)cc1", "Property Label": "inhibition", "Observed Value": 5.85}
{"Compound": "O=C(NCC1CC1)c1ccc(-c2cccc(C(=O)NC3CC3)c2)cc1", "Property Label": "inhibition", "Observed Value": 0}
{"Compound": "NC(=O)c1cc(-c2ccncc2)cc(-c2ccccc2)c1N", "Property Label": "inhibition", "Observed Value": 2.14}

[ask] What value of inhibition on Macrophage-stimulating protein receptor (Homo sapiens) (UniProt Q04912) does COc1ccc2cc(-c3c(-c4ccncc4)nc(-c4ccc([S+](C)[O-])cc4C)n3C)ccc2c1 (centres undefined) have?
[reply] 4.22

[ask] Same read-out for `NC(=O)c1ccc(Oc2nccc(-c3c(-c4ccc(F)cc4)ncn3C3CCNCC3)n2)cc1` ?
[reply] 6.11

====

Below: a set of entries, each annotated with reported inhibition.
# Target: Ephrin type-A receptor 4 (Homo sapiens) (UniProt P54764);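 note: mean inhibition of EPHA4 from the GSK PKIS screening set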
# Sequence (P54764 whole entry): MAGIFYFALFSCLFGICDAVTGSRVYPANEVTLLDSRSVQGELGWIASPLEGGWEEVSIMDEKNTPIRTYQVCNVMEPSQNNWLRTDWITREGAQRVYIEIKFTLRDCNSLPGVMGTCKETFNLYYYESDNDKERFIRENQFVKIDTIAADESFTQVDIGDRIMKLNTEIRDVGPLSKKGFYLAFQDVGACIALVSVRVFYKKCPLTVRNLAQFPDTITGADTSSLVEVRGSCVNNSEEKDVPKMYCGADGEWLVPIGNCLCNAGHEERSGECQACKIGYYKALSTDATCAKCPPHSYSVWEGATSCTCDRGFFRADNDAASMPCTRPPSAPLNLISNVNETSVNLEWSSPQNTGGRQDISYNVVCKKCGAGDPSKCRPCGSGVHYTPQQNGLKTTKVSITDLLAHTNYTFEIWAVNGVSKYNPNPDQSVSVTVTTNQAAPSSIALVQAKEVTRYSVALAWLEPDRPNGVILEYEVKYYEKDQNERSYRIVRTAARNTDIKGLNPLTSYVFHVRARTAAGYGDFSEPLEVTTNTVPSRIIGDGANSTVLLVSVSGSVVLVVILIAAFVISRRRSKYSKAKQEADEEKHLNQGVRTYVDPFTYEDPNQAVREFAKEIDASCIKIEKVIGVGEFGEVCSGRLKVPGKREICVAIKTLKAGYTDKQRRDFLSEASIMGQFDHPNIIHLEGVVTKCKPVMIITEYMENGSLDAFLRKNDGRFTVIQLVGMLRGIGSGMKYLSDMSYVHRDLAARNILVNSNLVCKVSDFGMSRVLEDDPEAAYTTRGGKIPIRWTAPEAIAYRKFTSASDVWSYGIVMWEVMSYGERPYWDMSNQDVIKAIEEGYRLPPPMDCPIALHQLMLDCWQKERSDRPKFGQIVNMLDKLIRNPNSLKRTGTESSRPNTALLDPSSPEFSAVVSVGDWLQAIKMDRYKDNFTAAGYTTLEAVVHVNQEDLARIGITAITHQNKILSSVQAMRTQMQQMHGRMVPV
# Condition Description: at 0.1 µM
Just the number in %, nothing appended.

// solved cases for inhibition follow
{"Smiles Entry": "C[C@@H](Oc1cc(-n2cnc3ccc(OCC4CCN(C)CC4)cc32)sc1C(N)=O)c1ccccc1Cl", "Target": "Ephrin type-A receptor 4 (Homo sapiens) (UniProt P54764)", "Observed Value": 8.9}
{"Smiles Entry": "CCN(CC)Cc1ccc(Nc2nccc(-c3cnn4ncccc34)n2)cc1", "Target": "Ephrin type-A receptor 4 (Homo sapiens) (UniProt P54764)", "Observed Value": 6.79}

Could you now look at the following compound, please?
[ask] Request the reported inhibition associated with `CN(c1ccc(NC(=O)Nc2c(Cl)cccc2Cl)cc1)c1ccnc(Nc2cccc(CS(C)(=O)=O)c2)n1`
[reply] 10.6

====

Below: a set of entries, each annotated with reported inhibition.
# Test system: Mast/stem cell growth factor receptor Kit (Homo sapiens), P10721 [V560G]
# Sequence (P10721 whole entry V560G): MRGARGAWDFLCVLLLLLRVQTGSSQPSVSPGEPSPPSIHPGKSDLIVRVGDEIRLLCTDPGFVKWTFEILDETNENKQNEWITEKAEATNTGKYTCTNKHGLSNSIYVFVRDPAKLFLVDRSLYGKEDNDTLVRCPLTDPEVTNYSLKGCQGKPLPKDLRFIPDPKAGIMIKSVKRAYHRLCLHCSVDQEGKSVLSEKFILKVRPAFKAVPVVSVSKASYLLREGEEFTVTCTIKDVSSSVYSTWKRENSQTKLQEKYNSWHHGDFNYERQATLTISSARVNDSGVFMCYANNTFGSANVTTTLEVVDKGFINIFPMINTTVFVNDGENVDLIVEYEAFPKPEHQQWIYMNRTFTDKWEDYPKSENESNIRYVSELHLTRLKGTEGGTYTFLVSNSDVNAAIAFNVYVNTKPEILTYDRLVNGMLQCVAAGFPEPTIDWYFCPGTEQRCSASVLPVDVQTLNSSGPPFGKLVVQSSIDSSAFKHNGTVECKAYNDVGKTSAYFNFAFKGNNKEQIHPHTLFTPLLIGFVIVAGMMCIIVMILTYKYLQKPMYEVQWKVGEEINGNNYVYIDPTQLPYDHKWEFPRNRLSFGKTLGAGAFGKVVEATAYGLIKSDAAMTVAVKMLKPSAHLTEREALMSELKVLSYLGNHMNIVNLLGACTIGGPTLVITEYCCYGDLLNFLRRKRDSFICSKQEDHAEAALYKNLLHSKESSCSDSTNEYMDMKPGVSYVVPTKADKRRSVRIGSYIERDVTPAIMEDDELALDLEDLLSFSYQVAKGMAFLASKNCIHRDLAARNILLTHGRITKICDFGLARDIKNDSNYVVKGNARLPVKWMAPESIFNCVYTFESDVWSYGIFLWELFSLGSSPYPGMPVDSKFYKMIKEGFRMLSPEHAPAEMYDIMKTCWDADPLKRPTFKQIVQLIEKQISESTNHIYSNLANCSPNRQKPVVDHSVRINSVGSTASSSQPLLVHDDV
# Condition Description: at 0.1 µM
Just the number in %, nothing appended.

// solved cases for inhibition follow
{"Smiles Entry": "FC(F)(F)c1cccc(Nc2nccc(-c3cnn4nc(-c5ccccc5)ccc34)n2)c1", "Observed Value": -2.09}
{"Smiles Entry": "COc1cc(C)c(N(C)C(=O)CN(C)C)cc1Nc1nc(Nc2cccc(F)c2C(N)=O)c2cc[nH]c2n1", "Observed Value": -1.08}
{"Smiles Entry": "O=C(Nc1n[nH]c2cc(-c3ccccc3)ccc12)C1CC1", "Observed Value": 1.4}
{"Smiles Entry": "Fc1ccc(-c2c(-c3ccncc3)nc3n2CCS3)cc1", "Observed Value": -2.29}
{"Smiles Entry": "COc1cc(N2CCN(C(C)C)CC2)ccc1Nc1nc(Nc2ccc(F)cc2C(=O)NC[C@@H](O)CO)c2cc[nH]c2n1", "Observed Value": -2.07}
{"Smiles Entry": "NC(=O)c1cc(-c2ccc(F)cc2)cc(-c2ccncc2)c1N", "Observed Value": -2.86}

Could you now look at the following molecule, please?
[ask] What value of inhibition on Mast/stem cell growth factor receptor Kit (Homo sapiens), P10721 [V560G] does `COc1cc(Nc2ncc3c(C)nc(-c4cccc(C(F)(F)F)c4)n3n2)cc(OC)c1OC` have?
[reply] -0.27

====

# Target: Cytoplasmic tyrosine-protein kinase BMX (Homo sapiens) (UniProt P51813)
# Condition Description: at 0.1 µM
# Description: GSK_PKIS: BMX mean inhibition at 0.1 uM [Nanosyn]
Property Label: inhibition (%)
Just the number in %, nothing appended.

// solved cases for inhibition follow
{"Molecule": "O=C(Nc1n[nH]c2cc(-c3ccccc3)ccc12)C1CC1", "inhibition / %": 4.11}
{"Molecule": "O=C(NCC1CC1)c1ccc(-c2cccc(C(=O)NC3CC3)c2)cc1", "inhibition / %": -3.65}
{"Molecule": "CNC(=O)c1cncc(/C=C/c2c(C)cccc2C)c1", "inhibition / %": 6.81}

[ask] Request the reported inhibition associated with `CCS(=O)(=O)c1ccc(OC)c(Nc2ncc(-c3ccccc3Cl)o2)c1`
[reply] -1.76

[ask] Same read-out for `CN(C)c1ccc2c(c1)/C(=C/Nc1ccc(S(N)(=O)=O)cc1)C(=O)N2` ?
[reply] -8.96

[ask] Same read-out for `O=C1Nc2ccccc2/C1=C/Nc1ccc(-n2cncn2)cc1` ?
[reply] 6.8

[ask] Same read-out for `C[C@@H](Oc1cc(-n2cnc3ccc(OCC4CCN(C)CC4)cc32)sc1C(N)=O)c1ccccc1Cl` ?
[reply] 0.11

[ask] Same read-out for `CCc1nccc2c1nc(-c1nonc1N)n2CC` ?
[reply] -1.94

[ask] Same read-out for COc1ccc2cc(-c3c(-c4ccncc4)nc(-c4ccc([S+](C)[O-])cc4C)n3C)ccc2c1 (centres undefined) ?
[reply] 0.28

====

# Target: Sphingosine kinase 1 (Homo sapiens) (UniProt Q9NYA1);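 note: mean SPHK1 inhibition value reported from the GSK PKIS kinase panel screen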
# Sequence (Q9NYA1 whole entry): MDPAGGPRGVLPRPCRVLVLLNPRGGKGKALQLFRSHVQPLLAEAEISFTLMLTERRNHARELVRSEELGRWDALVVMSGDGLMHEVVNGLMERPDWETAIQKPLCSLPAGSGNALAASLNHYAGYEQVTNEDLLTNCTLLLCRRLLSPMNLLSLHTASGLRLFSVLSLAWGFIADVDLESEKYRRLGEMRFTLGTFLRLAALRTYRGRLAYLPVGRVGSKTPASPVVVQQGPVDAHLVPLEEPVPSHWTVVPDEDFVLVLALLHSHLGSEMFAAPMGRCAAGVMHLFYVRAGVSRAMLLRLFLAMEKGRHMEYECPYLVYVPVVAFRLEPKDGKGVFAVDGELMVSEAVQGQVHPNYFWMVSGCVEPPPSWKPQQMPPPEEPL
# Condition Description: at 1 µM
Property Label: inhibition (%)
Just the number in %, nothing appended.

{"Smiles Entry": "NCc1ccc(-n2c(-c3nonc3N)nc3cnccc32)cc1", "inhibition / %": -0.9}
{"Smiles Entry": "c1ccc(-c2n[nH]cc2-c2ccnc(-c3ccc(OCCN4CCOCC4)cc3)c2)nc1", "inhibition / %": -1.7}
{"Smiles Entry": "O=C(Nc1n[nH]c2nc(-c3ccco3)ccc12)C1CC1", "inhibition / %": -1.96}
{"Smiles Entry": "CCc1cccc(CC)c1/C=C/c1cncc(C(=O)NC)c1", "inhibition / %": -1.72}
{"Smiles Entry": "Cc1ccc(C(=O)NC2CCC2)cc1-c1ccc(C(=O)NCC2CC2)cc1", "inhibition / %": -2.08}

[ask] Request the reported inhibition associated with `C/C(Nc1ccc(S(N)(=O)=O)cc1)=C1/C(=O)Nc2ccccc21`
[reply] 2.7

[ask] Same read-out for `FC(F)(F)c1cccc(Nc2nccc(-c3cnn4nc(-c5ccccc5)ccc34)n2)c1` ?
[reply] -2.23

[ask] Same read-out for `Fc1ccc(-c2ncn(CCCN3CCOCC3)c2-c2ccncc2)cc1` ?
[reply] -2.07

[ask] Same read-out for `COc1cc(N2CCN(C(C)C)CC2)ccc1Nc1nc(Nc2ccc(F)cc2C(=O)NC[C@@H](O)CO)c2cc[nH]c2n1` ?
[reply] 5.85

[ask] Same read-out for `Fc1ccc(-c2nc3n(c2-c2ccncc2)CCS3)cc1` ?
[reply] -0.03

[ask] Same read-out for `CCc1ccc(Oc2nccc(-c3c(-c4ccc(F)cc4)ncn3C3CCNCC3)n2)cc1` ?
[reply] 11.5

[ask] Same read-out for `Cc1ccc(NC(=O)c2ccoc2)cc1-c1ccc(C(=O)NCC2CC2)cc1` ?
[reply] -2.32

[ask] Same read-out for `Fc1ccc(-c2ncn(C3CCNCC3)c2-c2ccnc(Oc3ccc(Oc4ccccc4)cc3)n2)cc1` ?
[reply] -0.85

[ask] Same read-out for `NS(=O)(=O)c1ccc(N/N=C2\C(=O)Nc3ccc(C(=O)NCCCn4ccnc4)cc32)cc1` ?
[reply] -2.65

====

Below: a set of entries, each annotated with reported inhibition.
# Target: Protein kinase C beta type (Homo sapiens);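 note: measured against the PKC-beta2 splice variant, with values reported as mean percent inhibition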
# Condition Description: at 0.1 µM
# Description: GSK_PKIS: PKC-beta2 (splice variant) mean inhibition at 0.1 uM [Nanosyn]
Just the number in %, nothing appended.

[ask] What value of inhibition on Protein kinase C beta type (Homo sapiens) does `NC(=O)c1cc(-c2ccc(F)cc2)cc(-c2ccncc2)c1N` have?
[reply] 1.46

[ask] Same read-out for `FC(F)(F)c1cccc(Nc2nccc(-c3cnn4nc(-c5ccccc5)ccc34)n2)c1` ?
[reply] 1.28

[ask] Same read-out for `C[C@@H](Oc1cc(-n2cnc3ccc(OC4CCN(C)CC4)cc32)sc1C(N)=O)c1ccccc1Cl` ?
[reply] 1.56

[ask] Same read-out for `CNC(=O)c1cncc(/C=C/c2c(C)cccc2C)c1` ?
[reply] -0.12

[ask] Same read-out for `COc1cc2ncn(-c3cc(OCCc4ccccc4)c(C(N)=O)s3)c2cc1OC` ?
[reply] 0.9

[ask] Same read-out for `c1ccc(-c2n[nH]cc2-c2ccnc(-c3ccc(OCCN4CCOCC4)cc3)c2)nc1` ?
[reply] 3.96

====

# Target: Proto-oncogene tyrosine-protein kinase receptor Ret (Homo sapiens) (UniProt P07949);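 note: reported figure is the mean of RET inhibition measurements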
# Sequence (P07949 whole entry): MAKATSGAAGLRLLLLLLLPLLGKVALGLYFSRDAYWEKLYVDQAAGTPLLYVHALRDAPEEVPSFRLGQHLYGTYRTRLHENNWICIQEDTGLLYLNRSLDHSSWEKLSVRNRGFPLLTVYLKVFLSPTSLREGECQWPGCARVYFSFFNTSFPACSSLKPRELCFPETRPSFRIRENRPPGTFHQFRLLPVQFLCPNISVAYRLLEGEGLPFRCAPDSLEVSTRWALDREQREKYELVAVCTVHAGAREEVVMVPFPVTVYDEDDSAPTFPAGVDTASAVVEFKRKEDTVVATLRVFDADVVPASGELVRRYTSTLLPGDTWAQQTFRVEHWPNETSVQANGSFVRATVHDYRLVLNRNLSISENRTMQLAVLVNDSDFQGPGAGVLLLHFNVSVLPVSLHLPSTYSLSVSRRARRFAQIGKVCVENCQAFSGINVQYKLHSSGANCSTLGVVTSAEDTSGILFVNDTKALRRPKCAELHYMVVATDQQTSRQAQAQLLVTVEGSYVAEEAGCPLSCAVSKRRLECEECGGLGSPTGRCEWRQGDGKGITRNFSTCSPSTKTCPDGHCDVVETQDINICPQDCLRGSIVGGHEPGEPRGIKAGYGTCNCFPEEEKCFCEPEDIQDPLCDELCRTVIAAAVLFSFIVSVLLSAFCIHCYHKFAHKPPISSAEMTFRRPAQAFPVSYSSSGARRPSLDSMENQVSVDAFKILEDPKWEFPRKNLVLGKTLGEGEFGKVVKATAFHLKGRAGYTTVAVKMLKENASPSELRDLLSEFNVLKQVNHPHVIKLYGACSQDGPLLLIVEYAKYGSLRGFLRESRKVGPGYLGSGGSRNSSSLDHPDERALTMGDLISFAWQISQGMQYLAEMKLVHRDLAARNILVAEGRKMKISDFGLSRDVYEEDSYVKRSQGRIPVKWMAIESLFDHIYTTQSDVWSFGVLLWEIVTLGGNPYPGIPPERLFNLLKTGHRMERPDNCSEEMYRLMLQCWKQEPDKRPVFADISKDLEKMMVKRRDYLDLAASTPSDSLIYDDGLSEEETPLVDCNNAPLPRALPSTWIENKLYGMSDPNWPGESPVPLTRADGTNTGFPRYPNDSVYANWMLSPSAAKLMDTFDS
# Condition Description: at 0.1 µM
Below: a set of entries, each annotated with reported inhibition.
Just the number in %, nothing appended.

{"Molecule": "COc1cc(C)c(N(C)C(=O)CN(C)C)cc1Nc1nc(Nc2cccc(F)c2C(N)=O)c2cc[nH]c2n1", "Property Label": "inhibition", "Observed Value": 6.8}

[ask] Request the reported inhibition associated with `COc1cccc(-n2cnc3c(N/N=C/c4ccncc4)ncnc32)c1`
[reply] 3.89

[ask] Same read-out for `COc1cc(Nc2ncc(-c3ccccc3)o2)cc(OC)c1OC` ?
[reply] 2.33

[ask] Same read-out for COc1ccc2cc(-c3c(-c4ccncc4)nc(-c4ccc([S+](C)[O-])cc4C)n3C)ccc2c1 (stereo unspecified) ?
[reply] 2.66

[ask] Same read-out for `O=C(Nc1n[nH]c2cc(-c3ccccc3)ccc12)C1CC1` ?
[reply] 4.67

[ask] Same read-out for `c1ccc(Oc2ccc(Nc3ncc(-c4ccccc4)o3)cc2)cc1` ?
[reply] 5.96

[ask] Same read-out for `COc1cc2ncn(-c3cc(OCCc4ccccc4)c(C(N)=O)s3)c2cc1OC` ?
[reply] 3.22
